The origin of these recorded values is patent US20250345446A1.

Target: T1, Sortilin-6His (Homo sapiens (Human), UniProt Q99523 78-755)
T1 construct: In MST it was labelled non-covalently with RED-tris-NTA; also called soluble ectodomain of sortilin-6his; fluorescent sortilin-6his
T1 sequence (Q99523 78-755 V650M limits assumed): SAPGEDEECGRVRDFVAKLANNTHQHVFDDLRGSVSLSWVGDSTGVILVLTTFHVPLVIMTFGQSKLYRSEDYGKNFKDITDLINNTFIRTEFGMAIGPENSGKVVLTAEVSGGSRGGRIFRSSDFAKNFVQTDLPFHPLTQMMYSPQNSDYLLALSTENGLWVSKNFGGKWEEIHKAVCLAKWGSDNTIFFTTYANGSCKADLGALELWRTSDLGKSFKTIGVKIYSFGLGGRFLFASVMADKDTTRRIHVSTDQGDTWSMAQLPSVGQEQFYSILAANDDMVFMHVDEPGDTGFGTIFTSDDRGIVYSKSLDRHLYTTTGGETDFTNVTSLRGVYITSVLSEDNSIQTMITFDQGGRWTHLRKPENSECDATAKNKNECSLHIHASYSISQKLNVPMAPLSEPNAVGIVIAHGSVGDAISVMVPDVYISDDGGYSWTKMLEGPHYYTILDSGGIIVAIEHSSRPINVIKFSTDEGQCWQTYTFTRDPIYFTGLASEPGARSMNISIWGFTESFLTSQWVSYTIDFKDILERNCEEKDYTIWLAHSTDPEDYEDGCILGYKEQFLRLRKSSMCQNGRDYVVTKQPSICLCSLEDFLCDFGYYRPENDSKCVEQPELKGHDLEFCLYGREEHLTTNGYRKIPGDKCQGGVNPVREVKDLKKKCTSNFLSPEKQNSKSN
Assay: MST on labelled sortilin-6his ectodomain; KD score: +++ <25 nM, ++ 25-250 nM, + 250-2500 nM, 0 >2500 nM
# key: entry, value: KD
ASSAY_METRIC: KD

H-PQLL-OH [H-PQLL-OH]	25 to 250 nM
H-RYFL-OH [H-RYFL-OH]	250 to 2500 nM
REALRWDAPLRDPAPRQLL	< 25 nM
REAPRWDAPLRDPALFQLL	< 25 nM
LYENKPRRPYIL	25 to 250 nM
H-PYIL-OH [H-PYIL-OH]	25 to 250 nM
REAPRWDAPLRDPALRYLL	< 25 nM
H-RQYL-OH [H-RQYL-OH]	250 to 2500 nM
H-KQLL-OH [H-KQLL-OH]	25 to 250 nM
H-RYIL-OH [H-RYIL-OH]	250 to 2500 nM
IQLL	250 to 2500 nM
REAPRWDAPLRDPALRYYL	25 to 250 nM
LQLL	250 to 2500 nM
PYILKRQLYENKPRRPYIL	< 25 nM
REAPRWDAPLRDPALRQLL	< 25 nM
H-RQFL-OH [H-RQFL-OH]	250 to 2500 nM
H-FYIL-OH [H-FYIL-OH]	250 to 2500 nM
APLRDPAPRQLL	25 to 250 nM
